Source: PubChem BioAssay (NCI)

# key: entry, value: TGI
# System: MCF7 breast
# experiment_notes: NCI tumour cell line growth inhibition, 48 h

> print(dat)
                                   compound  obs.value
1                     c1cncc(CNCc2cccnc2)c1   > 100 µM
2   Cc1cc(OC(=O)NCn2cc(-c3ccccc3)nn2)ccc1Cl   > 100 µM
3  O=c1[nH]c2ccccc2n1CCCN1CCC(n2c(=O)[nH]c3cc(Cl)ccc32)CC1    34.9 µM

Task: Please give measured TGI of the following entry: `Cc1cc(N=C2C=C(Br)C(=O)C(Br)=C2)cc(CN(CC(=O)O)CC(=O)O)c1O`
Result: > 100 µM

Task: Please give measured TGI of the following entry: `COc1ccc2cc(CNCCCCCCNCc3ccc4cc(OC)ccc4c3)ccc2c1`
Result: 1.2 µM

Task: Please give measured TGI of the following entry: `COc1cc(NC(=O)CCSc2nc3ccc(C)cc3c(=O)n2Cc2ccccc2)cc(OC)c1OC`
Result: > 100 µM

---

# Tested on: NCI-H23 lung
# experiment_notes: NCI tumour cell line growth inhibition, 48 h
measurement_kind: TGI (µM)
Numeric answer only, unit µM assumed.

Worked set:
> print(dat)
                                   molecule  assayed.system  obs.value
1  COc1cc2c(cc1OCCCCCCN1CCN(CC(=O)Nc3ccc(Cl)cc3C(=O)c3ccccc3Cl)CC1)N=CC1CCCN1C2=O (stereo not given)    NCI-H23 lung      0.468
2  CC(C)Cc1ccc(C(C)CC2=CCC(CN(C)C)C2=O)cc1 (stereo not given)    NCI-H23 lung       28.2

The record that follows has no TGI shown yet.
Task: Please give measured TGI of the following entry: `Nc1ccc(S(=O)(=O)Nc2nc3ccccc3nc2N2CCCCCC2)cc1`
Result: 47.7

---

# System: HCT-15 colon
# experiment_notes: NCI tumour cell line growth inhibition, 48 h
measurement_kind: TGI (µM)
Numeric answer only, unit µM assumed.

> print(dat)
                               entry.smiles  assayed.system  measurement.kind  obs.value
1  Nc1ccc(S(=O)(=O)Nc2nc3ccccc3nc2N2CCCCCC2)cc1    HCT-15 colon               TGI       95.5

Task: Please give measured TGI of the following entry: `c1ccc2c(-c3nc(-c4c[nH]c5ccncc45)cs3)c[nH]c2c1`
Result: 3.4

---

# Tested on: DU-145 prostate
# experiment_notes: NCI tumour cell line growth inhibition, 48 h
Label True when TGI is at or above 20 µM; otherwise label False.

Consider the worked cases shown below.
compound	label_value
COc1cc(NC(=O)CCSc2nc3ccc(C)cc3c(=O)n2Cc2ccccc2)cc(OC)c1OC	True
Cc1ccc(S(=O)(=O)c2nc(-c3ccccc3)oc2S(C)=O)cc1 (configuration not stated)	False
CN(C)CCCNc1ccc2nnn3c4ccc(O)cc4c(=O)c1c23	False
c1ccc2c(c1)SCCCSCCSCCCS2	True
CC(C)=CCNc1nc(Cl)nc2nc[nH]c12	True

Task: In plain terms: is recorded TGI at least 20 µM for `O=C1OC[C@H]2[C@@H]1[C@H]1O[C@@H]2C2=C(CCC2)C1=O` ?
Result: True

Task: In plain terms: is recorded TGI at least 20 µM for `C/C(=N\Nc1nc2ccccc2n1C)c1cc2ccccc2cn1` ?
Result: False

Task: In plain terms: is recorded TGI at least 20 µM for COc1cc(C2C3=C(COC3=O)Oc3cc4c(cc32)OCO4)cc(OC)c1O (configuration not stated) ?
Result: False

Task: In plain terms: is recorded TGI at least 20 µM for `CC(C)(C)CC(C)(C)c1cc(O)c(O)c(CN2CCCCC2)c1` ?
Result: True

Task: In plain terms: is recorded TGI at least 20 µM for `C=CC[n+]1c2ccccc2n2cc([N+](=O)[O-])ccc21` ?
Result: True

Task: In plain terms: is recorded TGI at least 20 µM for CN1C(=O)C(O)C[C@@H]1c1ccccc1 (some centres not stated) ?
Result: True

Task: In plain terms: is recorded TGI at least 20 µM for `COc1ccc(C(=O)NNc2nc(Cl)nc(N3CCN(C(c4ccccc4)c4ccccc4)CC3)n2)cc1` ?
Result: False

Task: In plain terms: is recorded TGI at least 20 µM for COc1cc(C)c(C2NC(=O)c3ccccc3N2)cc1C (configuration not stated) ?
Result: False

Task: In plain terms: is recorded TGI at least 20 µM for O=C(c1ccccc1)c1c(NCC(O)CN2CCOCC2)n(Cc2ccccc2)c(=O)n(Cc2ccccc2)c1=O (configuration not stated) ?
Result: True

Task: In plain terms: is recorded TGI at least 20 µM for COc1cc2c(cc1OCCCCCCN1CCN(CC(=O)Nc3ccc(Cl)cc3C(=O)c3ccccc3Cl)CC1)N=CC1CCCN1C2=O (configuration not stated) ?
Result: False

Task: In plain terms: is recorded TGI at least 20 µM for `C1=C2CCCC3=Cc4ccccc4OC23Oc2ccccc21` ?
Result: True

---

# key: entry, value: TGI
# Tested on: HS 578T breast
# experiment_notes: NCI tumour cell line growth inhibition, 48 h

Worked set:
compound	TGI
Cc1ccc(S(=O)(=O)Nn2c(O)c(C#N)c(-c3ccc(Cl)cc3)c(C#N)c2=O)cc1	> 100 µM
CCCCCC[C@H](C)Nc1nc2ccccc2c2occc12	37.7 µM
CC(C)(C)OC(=O)NCCCn1c2c(c3ccccc3c1=O)C(=O)c1ccccc1-2	71.6 µM
Cn1c(-c2ccc(/C=N/NC(=S)N/N=C/c3ccc(-c4c[n+]5ccsc5n4C)cc3)cc2)c[n+]2ccsc12	> 100 µM
COc1cc2c(cc1OC)C(=O)/C(=C/c1cc(-c3ccc4c(c3)OCO4)n[nH]1)C2	8.08 µM

Task: Please give measured TGI of the following entry: `CC1=Nc2ccccc2/C1=C\c1c(C)[nH]c2ccccc12`
Result: 47.2 µM

Task: Please give measured TGI of the following entry: CN(C)/N=N/c1nc2c(c(=O)n(C)c(=O)n2C)n1CC(O)CO (stereo not drawn)
Result: > 100 µM

Task: Please give measured TGI of the following entry: COc1ccc(C(SC2C(O)C(CO)OC2n2ccc(=O)[nH]c2=O)(c2ccccc2)c2ccc(OC)cc2)cc1 (stereo not drawn)
Result: 53.6 µM

Task: Please give measured TGI of the following entry: `CC(=O)Nc1ccc(OC/C(N)=N/NC(=O)c2ccncc2)cc1`
Result: > 100 µM

Task: Please give measured TGI of the following entry: `CN(C)Cc1cc(C(=O)/C=C/c2ccccc2)cc(CN(C)C)c1O`
Result: > 100 µM

---

# Test system: SK-OV-3 ovarian
# experiment_notes: NCI tumour cell line growth inhibition, 48 h
Label 1 when TGI is at or above 50 µM; otherwise label 0.

Consider the worked cases shown below.
> print(dat)
                                   compound  label.value
1  C=C1C(=O)OC2CC(C)C3CC(O)OC(OCC)C3(C)CC12 (stereo not given)            1
2  CN(C)c1nc2ccccc2c2c1c1c(n2Cc2ccccc2)-c2ccccc2C1=O            1
3        CCCCCC[C@H](C)Nc1nc2ccccc2c2occc12            0

Moving on to the next compound.
Task: In plain terms: is recorded TGI at least 50 µM for `CC(C)=CCNc1nc(Cl)nc2nc[nH]c12` ?
Result: 0

---

# System: DU-145 prostate
# experiment_notes: NCI tumour cell line growth inhibition, 48 h
# key: entry, value: TGI

Worked set:
> print(dat)
                                   compound  measurement.kind  obs.value
1  COc1cc2c(cc1O)CC1c3c(cc(O)c(OC)c3-2)CCN1C (stereo unspecified)               TGI   > 100 µM
2  COC(=O)C1=C(C(=O)OC)C2(C)C=CC1O2 (stereo unspecified)               TGI    31.8 µM

Task: # return TGI of `O=C(Nn1c(-c2ccccc2)nc2ccccc2c1=O)c1ccccc1O` (system: DU-145 prostate)
Result: > 100 µM

Task: # return TGI of O=C1CC(c2[nH]nc3ccccc23)C(=O)N1c1ccccc1 (stereo unspecified) (system: DU-145 prostate)
Result: > 100 µM

Task: # return TGI of `C=CC(=O)Nc1cc(N2CCN(CC)CC2)ccc1Nc1cc(N(C)C(=O)Nc2c(Cl)c(OC)cc(OC)c2Cl)ncn1` (system: DU-145 prostate)
Result: 16.4 µM

Task: # return TGI of C1CC2CN(CCCN3CCOCC3)C(C1)O2 (stereo unspecified) (system: DU-145 prostate)
Result: > 100 µM
